Tested on: HCT-116
Assay: NCI tumour cell line growth inhibition, 48 h
Activity calls are given as the source filed them. No stated cut-off is given here; in the data, active = GI50 up to about 1.1 µM and inactive = higher.
Classes to choose from: active, inactive

Would you please look over these solved cases?
- compound: "COc1ccccc1CNCCCCCNCCCCCCCCCCNCCCCCNCc1ccccc1OC"
  labelValue: "inactive"
- compound: "C/C(=N\\N=C(/S)N(C)C)c1cccnn1"
  labelValue: "active"
- compound: "CSc1ncnc2c1cnn2Cc1cnnn1COCC(O)CO (stereo not given)"
  labelValue: "inactive"

Challenge: Which outcome was assigned to CC(C)C(N)C(=O)NC(CCC(=O)NCCCCC(N)C(=O)NCCCNc1ccc([N+](=O)[O-])c2[nH]c3ccccc3c(=O)c12)C(N)=O (stereo not given) in this test?
Response given: inactive

Challenge: Look up the recorded call for `COc1cc2c(cc1OS(C)(=O)=O)N=C[C@@H]1CCCN1C2=O` in this test.
Response given: inactive

Challenge: Write down the call the test reported for this compound. Item: Fc1cccc(C2SCc3nc4ccccc4n32)c1F (stereo not given)
Response given: inactive

Challenge: Test call for this compound, please: CC1C(=O)CC(c2cccs2)N(N=O)C1c1cccs1 (stereo not given)
Response given: inactive

Challenge: Short answer needed: outcome of this test for CC(=O)O[C@H]1CC2C(C3CCC(C(C)CCC(N)=O)[C@]31C)[C@H](OC(C)=O)C[C@@H]1CC3(CC[C@]21C)OOC1(CC[C@]2(C)C4C[C@H](OC(C)=O)[C@]5(C)C(C(C)CCC(N)=O)CCC5C4[C@H](OC(C)=O)C[C@@H]2C1)OO3 (stereo not given in full) ?
Response given: inactive

Challenge: Entry COc1ccc2nc3cc(Cl)ccc3c(NCCC(=O)OCC(O)C(O)C(O[C@H](C)C(=O)NC(C)C(=O)NC(CCC(N)=O)C(=O)OCc3ccccc3)C(C=O)NC(C)=O)c2c1 (stereo not given in full) : call = ?
Response given: inactive

Challenge: Called result for `Cc1cc2nc(CC(C(F)(F)F)C(F)(F)F)oc2cc1C`
Response given: active
